tested-system: RET (Homo sapiens, UniProt P07949)
Construct: truncated human FAK, RET, FLT3, JAK2, and LRRK2
Sequence (P07949 658-1114 limits assumed): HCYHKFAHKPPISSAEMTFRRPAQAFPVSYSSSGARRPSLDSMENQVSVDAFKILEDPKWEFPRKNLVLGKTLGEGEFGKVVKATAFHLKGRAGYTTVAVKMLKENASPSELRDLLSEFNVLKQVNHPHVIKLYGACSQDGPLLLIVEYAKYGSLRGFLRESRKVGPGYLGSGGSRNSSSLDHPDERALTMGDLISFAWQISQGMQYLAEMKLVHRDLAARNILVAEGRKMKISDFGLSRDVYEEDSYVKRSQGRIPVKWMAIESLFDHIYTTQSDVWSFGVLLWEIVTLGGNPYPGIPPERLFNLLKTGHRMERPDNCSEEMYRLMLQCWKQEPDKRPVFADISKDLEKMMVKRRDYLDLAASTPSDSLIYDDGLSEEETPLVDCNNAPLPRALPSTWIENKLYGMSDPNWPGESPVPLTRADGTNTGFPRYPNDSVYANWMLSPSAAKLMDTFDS
protocol-description: Kinase inhibition assay: RET
reported-property: pIC50
Scale explanation: pIC50 corresponds to minus log10 of a concentration expressed in moles per litre.

*Q* Given Cc1cc(C)cc(Nc2nccc(-n3cc(C(=O)N4CC[C@@H](O)C4)c(C)n3)n2)c1 [Compound 32] , state its recorded pIC50.
*A* 7.29

*Q* Given COc1cc(Nc2ncc(C)c(-n3cc(C)c(CN4CCN(CCO)CC4)c3)n2)cc(OC)c1OC [Compound 40] , state its recorded pIC50.
*A* 7.99

*Q* Given Cc1cn(-c2nc(Nc3cc(C)c(OCCO)c(C)c3)ncc2C)cc1CN(C)C [Compound 121] , state its recorded pIC50.
*A* 8.64

*Q* Given COc1cc(Nc2ncc(C)c(-n3cc(C)c(CN4CC(OC(=O)C(C)(C)C)C4)c3)n2)cc(OC)c1OC [Compound 93] , state its recorded pIC50.
*A* 7.12

---

tested-system: FLT3 (Homo sapiens, UniProt P36888)
Construct: truncated human FAK, RET, FLT3, JAK2, and LRRK2
Sequence (P36888 564-993 limits assumed): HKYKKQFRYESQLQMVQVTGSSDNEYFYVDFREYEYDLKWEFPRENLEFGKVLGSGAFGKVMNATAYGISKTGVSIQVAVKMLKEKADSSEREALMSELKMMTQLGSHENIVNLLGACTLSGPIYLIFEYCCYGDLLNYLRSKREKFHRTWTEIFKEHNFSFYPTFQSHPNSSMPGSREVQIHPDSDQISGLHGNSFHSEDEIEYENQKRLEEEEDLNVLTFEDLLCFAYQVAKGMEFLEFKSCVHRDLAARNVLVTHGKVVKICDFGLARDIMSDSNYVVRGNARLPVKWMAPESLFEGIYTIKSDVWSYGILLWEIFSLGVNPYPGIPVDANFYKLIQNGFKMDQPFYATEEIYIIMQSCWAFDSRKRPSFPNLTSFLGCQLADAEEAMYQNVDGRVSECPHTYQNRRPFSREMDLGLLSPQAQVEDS
protocol-description: Kinase inhibition assay: FLT3
Structures can show the parent of a compound that is named as a salt.
reported-property: pIC50
Scale explanation: pIC50 corresponds to minus log10 of a concentration expressed in moles per litre.

*Q* Given COc1cc(Nc2ncc(C)c(-n3cc(C)c(CN4CCCNCC4)c3)n2)cc(OC)c1OC [Compound 96, trihydrochloride] , state its recorded pIC50.
*A* 9.28

*Q* Given COc1cc(Nc2ncc(C)c(-n3cc(C)c(CN4CC(O)C4)c3)n2)cc(OC)c1OC , state its recorded pIC50.
*A* 9.40

*Q* Given COc1cc(Nc2ncc(C)c(-n3cc(C)c(CN4CC(OC(=O)C(C)(C)C)C4)c3)n2)cc(OC)c1OC , state its recorded pIC50.
*A* 7.93

*Q* Given Cc1cn(-c2nc(Nc3ccc(N4CC[C@H](O)C4)c(C)c3)ncc2C)cc1CO , state its recorded pIC50.
*A* 8.17

*Q* Given COc1cc(Nc2ncc(C)c(-n3cc(C)c(CN4CCN(CCO)CC4)c3)n2)cc(OC)c1OC , state its recorded pIC50.
*A* 9.77

*Q* Given COc1cc(Nc2ncc(C)c(-n3cc(C)c(CN4CCCN(C(=O)C(C)(C)C)CC4)c3)n2)cc(OC)c1OC , state its recorded pIC50.
*A* 8.44

*Q* Given Cc1cn(-c2nc(Nc3cc(C)c(OCCO)c(C)c3)ncc2C)cc1CN(C)C , state its recorded pIC50.
*A* 8.77

*Q* Given COc1cc(Nc2ncc(C)c(-n3cc(C)c(CO)c3)n2)cc(OC)c1OC , state its recorded pIC50.
*A* 8.72
